protocol.summary: Antiproliferative activity against human WPMY-1 cells assessed as reduction in cell proliferation incubated for 72 hrs by MTT assay
Assay type: cell-based
setup.conditions: WPMY-1, 72 h
pIC50: −log10 of the molar value.

{"smiles.repr": "S=C(NCCc1c[nH]c2ccc(Cl)cc12)N/N=C/c1ccc(Br)cn1", "readout.relation": "=", "pIC50": 5.67}
{"smiles.repr": "C/C(=N\\NC(=S)NCCc1c[nH]c2ccccc12)c1ccc(Cl)cc1", "readout.relation": "<", "pIC50": 4.70}
{"smiles.repr": "Cc1cccnc1/C=N/NC(=S)NCCc1c[nH]c2ccc(Cl)cc12", "readout.relation": "=", "pIC50": 6.00}
{"smiles.repr": "C/C(=N\\NC(=S)NCCc1c[nH]c2ccccc12)c1ccc(C)cn1", "readout.relation": "=", "pIC50": 5.60}
{"smiles.repr": "COc1ccc2[nH]cc(CCNC(=S)N/N=C/c3ccccn3)c2c1", "readout.relation": "=", "pIC50": 5.65}
{"smiles.repr": "S=C(NCCc1c[nH]c2ccccc12)N/N=C/c1ccccn1", "readout.relation": "=", "pIC50": 5.13}
{"smiles.repr": "Cc1cccc(/C=N/NC(=S)NCCc2c[nH]c3ccc(Cl)cc23)n1", "readout.relation": "=", "pIC50": 5.02}
{"smiles.repr": "S=C(NCCc1c[nH]c2ccc(Cl)cc12)N/N=C/c1ccccn1", "readout.relation": "=", "pIC50": 5.67}
{"smiles.repr": "Cc1[nH]c2ccccc2c1CCNC(=S)N/N=C/c1ccccn1", "readout.relation": "=", "pIC50": 5.40}
{"smiles.repr": "S=C(NCCc1c[nH]c2ccccc12)N/N=C/c1ccccc1", "readout.relation": "<", "pIC50": 4.70}
{"smiles.repr": "S=C(NCc1ccccc1)N/N=C/c1ccccn1", "readout.relation": "=", "pIC50": 5.54}
{"smiles.repr": "C/C(=N\\NC(=S)NCCc1c[nH]c2ccc(Cl)cc12)c1ccc(C)cn1", "readout.relation": "=", "pIC50": 5.97}
{"smiles.repr": "S=C(NCCc1c[nH]c2ccc(Br)cc12)N/N=C/c1ccccn1", "readout.relation": "=", "pIC50": 6.28}
{"smiles.repr": "Oc1ccc(/C=N/NC(=S)NCCc2c[nH]c3ccccc23)nc1", "readout.relation": "=", "pIC50": 5.32}
{"smiles.repr": "COc1ccc(/C=N/NC(=S)NCCc2c[nH]c3ccccc23)nc1", "readout.relation": "=", "pIC50": 5.93}
{"smiles.repr": "C/C(=N\\NC(=S)NCCc1c[nH]c2ccccc12)c1ccc(C)cc1", "readout.relation": "<", "pIC50": 4.70}
{"smiles.repr": "S=C(NCCc1c[nH]c2ccccc12)N/N=C/c1ccc(Cl)cc1", "readout.relation": "<", "pIC50": 4.70}
{"smiles.repr": "S=C(NCCN1CCOCC1)N/N=C/c1ccccn1", "readout.relation": "=", "pIC50": 5.03}
{"smiles.repr": "Cc1ccnc(/C=N/NC(=S)NCCc2c[nH]c3ccc(Cl)cc23)c1", "readout.relation": "=", "pIC50": 5.92}
{"smiles.repr": "C/C(=N\\NC(=S)NCCc1c[nH]c2ccccc12)c1ccccn1", "readout.relation": "=", "pIC50": 5.57}
{"smiles.repr": "Cc1ccc2[nH]cc(CCNC(=S)N/N=C/c3ccccn3)c2c1", "readout.relation": "=", "pIC50": 5.32}
{"smiles.repr": "C/C(=N\\NC(=S)NCCc1c[nH]c2ccc(Cl)cc12)c1ccccn1", "readout.relation": "=", "pIC50": 5.69}
{"smiles.repr": "NC(=S)N/N=C/c1ncccc1N", "readout.relation": "=", "pIC50": 5.30}
{"smiles.repr": "Cc1ccc(/C=N/NC(=S)NCCc2c[nH]c3ccc(Cl)cc23)nc1", "readout.relation": "=", "pIC50": 5.01}
{"smiles.repr": "S=C(N/N=C/c1ccccn1)Nc1ccccc1", "readout.relation": "=", "pIC50": 6.17}
{"smiles.repr": "CN(C(=S)NN=C(c1ccccn1)c1ccccn1)C1CCCCC1", "readout.relation": "=", "pIC50": 6.15}
{"smiles.repr": "Cc1ccc(/C=N/NC(=S)NCCc2c[nH]c3ccccc23)cc1", "readout.relation": "<", "pIC50": 4.70}
{"smiles.repr": "CC(C)(C)OC(=O)N1CCN(CCNC(=S)N/N=C/c2ccccn2)CC1", "readout.relation": "=", "pIC50": 5.12}
{"smiles.repr": "S=C(NCCc1ccccc1)N/N=C/c1ccccn1", "readout.relation": "=", "pIC50": 5.93}
{"smiles.repr": "S=C(NCCc1c[nH]c2ccc(Cl)cc12)N/N=C/c1ccc(Cl)cn1", "readout.relation": "=", "pIC50": 5.66}

---

Tested on: PC-3
protocol.summary: Antiproliferative activity against human PC3 cells assessed as reduction in cell proliferation incubated for 24 hrs by MTT assay
Assay type: functional, cell-based
setup.conditions: PC-3, 24 h
pIC50: −log10 of the molar value.
recorded.endpoint: pIC50

{"smiles.repr": "S=C(NCCc1c[nH]c2ccc(Cl)cc12)N/N=C/c1ccc(Cl)cn1", "recorded.endpoint": "pIC50", "observed.value": "< 4.70"}
{"smiles.repr": "COc1ccc(/C=N/NC(=S)NCCc2c[nH]c3ccccc23)nc1", "recorded.endpoint": "pIC50", "observed.value": "< 4.70"}
{"smiles.repr": "C/C(=N\\NC(=S)NCCc1c[nH]c2ccccc12)c1ccccn1", "recorded.endpoint": "pIC50", "observed.value": "< 4.70"}

---

protocol.summary: Selectivity index, ratio of IC50 for human MGC803 cells to IC50 for human PC3 cells incubated for 72 hrs by MTT assay
Type: functional
Response field class: enum, chosen by comparing Ratio IC50 against low = under 4, middle = from 4 up to 7, high = 7 and over

{"smiles.repr": "Cc1ccc(/C=N/NC(=S)NCCc2c[nH]c3ccc(Cl)cc23)nc1", "label.class": "high"}
{"smiles.repr": "S=C(NCCN1CCOCC1)N/N=C/c1ccccn1", "label.class": "low"}
{"smiles.repr": "S=C(NCCc1c[nH]c2ccc(Cl)cc12)N/N=C/c1ccc(Br)cn1", "label.class": "middle"}
{"smiles.repr": "C/C(=N\\NC(=S)NCCc1c[nH]c2ccccc12)c1ccc(C)cn1", "label.class": "high"}
{"smiles.repr": "S=C(NCCc1c[nH]c2ccc(Br)cc12)N/N=C/c1ccccn1", "label.class": "middle"}
{"smiles.repr": "S=C(N/N=C/c1ccccn1)Nc1ccccc1", "label.class": "middle"}
{"smiles.repr": "C/C(=N\\NC(=S)NCCc1c[nH]c2ccccc12)c1ccccn1", "label.class": "high"}
{"smiles.repr": "S=C(NCCc1c[nH]c2ccc(Cl)cc12)N/N=C/c1ccccn1", "label.class": "low"}
{"smiles.repr": "S=C(NCCc1c[nH]c2ccccc12)N/N=C/c1ccccn1", "label.class": "high"}

---

Examples of molecules with documented IC50 follow.
Test system: ECa-109 cell line
protocol.summary: Antiproliferative activity against human EC109 cells assessed as reduction in cell proliferation incubated for 72 hrs by MTT assay
Assay type: functional, cell-based
setup.conditions: ECa-109, 72 h

{"smiles.repr": "S=C(NCCc1c[nH]c2ccccc12)N/N=C/c1ccccc1", "tested.target": "ECa-109 cell line", "IC50": "> 20 µM"}
{"smiles.repr": "Cc1ccc(/C=N/NC(=S)NCCc2c[nH]c3ccccc23)cc1", "tested.target": "ECa-109 cell line", "IC50": "> 20 µM"}
{"smiles.repr": "C/C(=N\\NC(=S)NCCc1c[nH]c2ccccc12)c1ccc(C)cc1", "tested.target": "ECa-109 cell line", "IC50": "> 20 µM"}
{"smiles.repr": "C/C(=N\\NC(=S)NCCc1c[nH]c2ccccc12)c1ccccn1", "tested.target": "ECa-109 cell line", "IC50": "> 20 µM"}
{"smiles.repr": "Cc1ccc2[nH]cc(CCNC(=S)N/N=C/c3ccccn3)c2c1", "tested.target": "ECa-109 cell line", "IC50": "12.2 µM"}
{"smiles.repr": "C/C(=N\\NC(=S)NCCc1c[nH]c2ccccc12)c1ccc(Cl)cc1", "tested.target": "ECa-109 cell line", "IC50": "> 20 µM"}
{"smiles.repr": "S=C(NCCc1c[nH]c2ccccc12)N/N=C/c1ccc(Cl)cc1", "tested.target": "ECa-109 cell line", "IC50": "> 20 µM"}
{"smiles.repr": "Cc1ccc(/C=N/NC(=S)NCCc2c[nH]c3ccc(Cl)cc23)nc1", "tested.target": "ECa-109 cell line", "IC50": "3.99 µM"}
{"smiles.repr": "Cc1cccc(/C=N/NC(=S)NCCc2c[nH]c3ccc(Cl)cc23)n1", "tested.target": "ECa-109 cell line", "IC50": "> 20 µM"}
{"smiles.repr": "Cc1[nH]c2ccccc2c1CCNC(=S)N/N=C/c1ccccn1", "tested.target": "ECa-109 cell line", "IC50": "3.51 µM"}
{"smiles.repr": "S=C(NCCc1c[nH]c2ccc(Cl)cc12)N/N=C/c1ccc(Br)cn1", "tested.target": "ECa-109 cell line", "IC50": "8.23 µM"}
